Reference for the values: ChEMBL document CHEMBL1201862

test system: RXF 393; test: NCI tumour cell line growth inhibition, 48 h
Activity calls are given as the source filed them. Cut-off read from the data, not from the text of the source: active = GI50 up to about 1.1 µM and inactive = higher.
Please respond with reported GI50 for every item in the list.

Req: Suppose we examine the molecule CC(Oc1ccccc1Cl)C(=O)NN1C(=O)CSC1c1ccc(Cl)cc1 (centres undefined) ; what GI50 value has been reported?
Resp: 17.3 µM (inactive)

Req: Can you handle "CCOC(=O)Cc1nc2ccccc2s1" next?
Resp: 20.9 µM (inactive)

Req: Can you handle "CN(C)/C=N\c1cc[nH]c(=O)n1" next?
Resp: > 100 µM (inactive)

Req: Can you handle "CC1=C(C(=O)Nc2ccc([N+](=O)[O-])cc2)C(c2ccc3c(c2)OCO3)C(C(=O)Nc2ccc([N+](=O)[O-])cc2)=C(C)N1" next?
Resp: 25.3 µM (inactive)

Req: Can you handle "CO/N=C\c1ccc2c(c1)Sc1ccccc1O2" next?
Resp: 27.5 µM (inactive)

Req: Can you handle "COc1cc(S(=O)(=O)Nc2nc(-c3ccc(N4C(=O)/C(=C/C=C/c5ccccc5)N=C4c4ccccc4)cc3)cs2)ccc1Cl" next?
Resp: 37.6 µM (inactive)

Req: Can you handle "COc1ccc(Cc2nc3ccccc3s2)cc1OC" next?
Resp: 19.6 µM (inactive)

Req: Can you handle "CC(=O)Nc1ccc(/C=C/C(=O)c2sc(-c3nc(C)c(C(=O)/C=C/c4ccc(NC(C)=O)cc4)s3)nc2C)cc1" next?
Resp: > 100 µM (inactive)

Req: Can you handle "O=c1[nH]c2c(Nc3c4ccccc4nc4ccccc34)c([N+](=O)[O-])c(Nc3c4ccccc4nc4ccccc34)c([N+](=O)[O-])c2[nH]1" next?
Resp: 2.42 µM (inactive)
